Listed compounds paired with reported residual activity
# TEST TARGET: UniProtKB P49841
# Sequence (P49841 whole entry, looked up): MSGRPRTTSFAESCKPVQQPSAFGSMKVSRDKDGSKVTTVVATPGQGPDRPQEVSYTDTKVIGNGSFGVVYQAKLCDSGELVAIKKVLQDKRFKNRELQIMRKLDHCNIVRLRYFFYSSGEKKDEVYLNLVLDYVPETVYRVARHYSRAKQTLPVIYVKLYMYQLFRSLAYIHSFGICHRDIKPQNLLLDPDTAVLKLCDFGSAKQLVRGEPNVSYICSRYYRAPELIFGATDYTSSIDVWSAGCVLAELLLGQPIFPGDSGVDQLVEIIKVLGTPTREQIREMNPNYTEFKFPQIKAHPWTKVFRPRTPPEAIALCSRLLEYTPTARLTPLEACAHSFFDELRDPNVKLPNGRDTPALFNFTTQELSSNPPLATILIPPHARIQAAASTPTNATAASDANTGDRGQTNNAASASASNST
# MEASUREMENT NOTES: radiometric filter-binding kinase assay
# SETTINGS: compound 10.0 µM
Your answer should be a plain number; it is taken to be in %.

Enquiry: Recorded residual activity for COC(=O)/C=C/C(=O)OC , please?
Return: 92

Enquiry: Also Oc1ccc2ccccc2c1SSc1c(O)ccc2ccccc12 ?
Return: 106

###

# TEST TARGET: GCK (human) (UniProt Q12851)
# Sequence (Q12851 whole entry, looked up): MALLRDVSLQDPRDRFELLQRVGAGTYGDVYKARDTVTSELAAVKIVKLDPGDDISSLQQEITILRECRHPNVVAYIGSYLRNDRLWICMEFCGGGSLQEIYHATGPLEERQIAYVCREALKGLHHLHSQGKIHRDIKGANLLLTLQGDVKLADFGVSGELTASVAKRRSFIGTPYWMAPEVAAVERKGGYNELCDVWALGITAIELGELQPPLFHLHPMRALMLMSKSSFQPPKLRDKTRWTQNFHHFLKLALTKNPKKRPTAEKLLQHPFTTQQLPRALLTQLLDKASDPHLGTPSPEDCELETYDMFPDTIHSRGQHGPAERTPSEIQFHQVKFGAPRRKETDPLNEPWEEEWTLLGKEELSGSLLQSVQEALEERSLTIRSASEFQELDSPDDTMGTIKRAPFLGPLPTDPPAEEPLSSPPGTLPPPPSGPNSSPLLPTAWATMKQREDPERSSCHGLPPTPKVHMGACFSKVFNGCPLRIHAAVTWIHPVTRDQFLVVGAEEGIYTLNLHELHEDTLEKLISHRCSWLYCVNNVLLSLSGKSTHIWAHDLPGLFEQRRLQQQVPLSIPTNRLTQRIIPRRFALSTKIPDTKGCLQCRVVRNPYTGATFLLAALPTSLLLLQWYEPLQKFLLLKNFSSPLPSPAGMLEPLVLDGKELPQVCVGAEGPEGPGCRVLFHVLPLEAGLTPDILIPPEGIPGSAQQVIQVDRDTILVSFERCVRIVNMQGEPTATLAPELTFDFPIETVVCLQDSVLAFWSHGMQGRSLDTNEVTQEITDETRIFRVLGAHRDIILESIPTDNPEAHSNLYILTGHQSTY
# MEASUREMENT NOTES: radiometric filter-binding kinase assay
# SETTINGS: compound 0.1 µM
Catalogue of residual activity readings, one per entry.
Report the figure in % without appending any unit label.

Examples with answers:
{"columns": ["COMPOUND", "residual activity [%]"],
 "data": [
  ["NC(=O)c1cc2c(-c3cccc(-c4ccccc4)c3)cnc(N)c2s1", 7],
  ["NC1(c2ccc(-c3nc4ccn5c(=O)[nH]nc5c4cc3-c3ccccc3)cc2)CCC1", 108],
  ["O=C(NCCCNc1nc(Nc2cccc(CN3CCOCC3)c2)ncc1C1CC1)C1CCC1", 77],
  ["COc1ccc(N(C(=O)Nc2c(C)cccc2C)c2cc(Nc3ccc(N4CCN(C)CC4)cc3)ncn2)c(OC)c1", 72],
  ["COc1cc(O)c2c(c1)[C@H]1OC1C[C@H](O)[C@H](O)C(=O)/C=C\\C[C@H](C)OC2=O (some centres undefined)", 105],
  ["C=CC(=O)N1CCC[C@@H](n2nc(-c3ccc(Oc4ccccc4)cc3)c3c(N)ncnc32)C1", 98],
  ["Cc1cc(NC(=O)c2cccc(NC(=O)/C=C/CN(C)C)c2)ccc1Nc1nccc(-c2cccnc2)n1", 98],
  ["Cc1cccc(-c2nn(C(=S)Nc3ccccc3)cc2-c2ccnc3ccccc23)n1", 98]
]}

Let's switch to this compound now.
Enquiry: Suppose we examine the compound O=C(Nc1nc2cc(C(F)(F)F)cc(NC3CC3)n2n1)c1cccnc1 ; what residual activity value has been reported?
Return: 103
